system: 97-7 bladder cancer cell line; experiment: CellTiter-Glo viability assay, 97-7; type: cell-based; details: FGFR3 status S249C, 72 hours, read-out: Ganetespib IC50
pIC50: −log10 of the molar value.
assay.endpoint: pIC50

INSERT INTO results (entry_smiles, recorded_number) VALUES
  ('CC(C)c1cc(-c2n[nH]c(=O)n2-c2ccc3c(ccn3C)c2)c(O)cc1O', 7.42);

----------
// reported IC50 for each item listed
system: RT4 bladder cancer cell line; experiment: CellTiter-Glo viability assay, RT4; type: cell-based; settings: 72 hours (FIG. 8), read-out: IC50 values
assay.endpoint: IC50

INSERT INTO results (compound, target_or_test_system, result) VALUES
  ('CCNC(=O)c1noc(-c2cc(C(C)C)c(O)cc2O)c1-c1ccc(CN2CCOCC2)cc1 [AUY922]', 'RT4 bladder cancer cell line', '> 1000 nM'),
  ('CC(C)c1cc(-c2n[nH]c(=O)n2-c2ccc3c(ccn3C)c2)c(O)cc1O [ganetespib]', 'RT4 bladder cancer cell line', '> 1000 nM');

----------
system: DHS1 bladder cancer cell line; assay: CellTiter-Glo viability assay, DHS1; type: cell-based; settings: FGFR3 status WT, 72 hours, read-out: Ganetespib IC50
assay.endpoint: IC50 (nM)

INSERT INTO assay_data (molecule, measure_unit, recorded_number) VALUES
  ('CC(C)c1cc(-c2n[nH]c(=O)n2-c2ccc3c(ccn3C)c2)c(O)cc1O [ganetespib]', 'nM', 6);

----------
test system: TCCSUP bladder cancer cell line; test: CellTiter-Glo viability assay, TCCSUP; assay type: cell-based; settings: Homo sapiens, TCC-SUP, FGFR3 status WT, 72 hours, read-out: Ganetespib IC50
assay.endpoint: IC50 (nM)

INSERT INTO assay_data (compound, assay_endpoint, recorded_number) VALUES
  ('CC(C)c1cc(-c2n[nH]c(=O)n2-c2ccc3c(ccn3C)c2)c(O)cc1O [ganetespib]', 'IC50', 142);

----------
system: BFTC bladder cancer cell line; experiment: CellTiter-Glo viability assay, BFTC; assay type: cell-based; conditions: FGFR3 status WT, 72 hours, read-out: Ganetespib IC50
pIC50: −log10 of the molar value.
assay.endpoint: pIC50

INSERT INTO measurements (entry_smiles, recorded_number) VALUES
  ('CC(C)c1cc(-c2n[nH]c(=O)n2-c2ccc3c(ccn3C)c2)c(O)cc1O', 7.77);
